Test system: HT29 colon
Test: NCI tumour cell line growth inhibition, 48 h
Property: TGI; scope: individual compounds
MEASURE_NAME: TGI (µM)

>>> print(df.to_string())
                                    compound  measure_name  value_prefix  numeric_readout
 0  C/C(=N/NC(=S)Nc1cccc(Cl)c1)c1cccc(/C(C)=N\NC(=S)Nc2cccc(Cl)c2)n1           TGI             >             42.4
 1  O=C(Oc1ccccc1Cl)c1cccnc1Nc1ccnc(C(F)(F)F)c1           TGI             =             71.5
 2       COc1ccc(OC)c2c1C(=O)C(Cl)=C(Cl)C2=O           TGI             =             15.5
 3    N#C/C(=C\N1CCNC1=S)C(=O)c1ccc2ccccc2c1           TGI             >              100
 4          C[n+]1ccccc1/C=C/c1ccc2c(c1)OCO2           TGI             >               10
 5        CCC(=O)NCC1(c2c[nH]c3ccccc23)SCCS1           TGI             >              100
 6  Cc1ccc(S(=O)(=O)NC(C)C(=O)O)cc1 (stereo not given)           TGI             >              100
 7         C/C(CC(=O)Nc1ccc(C)cc1)=N\NC(N)=S           TGI             >              100
 8  COC(=O)c1ccc(/C=N/c2cc(C)nn2-c2ccccc2)cc1           TGI             =             92.1
 9  COc1cc(C(C)c2cc3c(cc2OCCOCCOc2cc4c(cc2C(C)c2cc(OC)c(OC)c(OC)c2)OCO4)OCO3)cc(OC)c1OC (stereo not given)           TGI             >              100
10  CCOC(=O)C1=C(C)N(Cc2ccc(Cl)cc2Cl)C2(O)C(OC)CC(=O)C3C(=O)N(c4ccccc4)C(=O)C132 (stereo not given)           TGI             =                4
11  CCC(=O)[O-].CCC(=O)[O-].N.N.N.N.[Co+3].[O-][Cl+3]([O-])([O-])[O-]           TGI             >              100
12  COC(=O)C(=O)C(C(=O)C(=O)Nc1ccc([N+](=O)[O-])cc1C#N)c1nc2ccc([N+](=O)[O-])cc2[nH]c1=O (stereo not given)           TGI             >              100
13  CN(C)CCCNC(=O)c1cc(NC(=O)CCCn2c3ccccc3c3ccccc32)cn1C           TGI             >              100
14  COc1ccc(Oc2nc3cc(C(F)(F)F)ccc3nc2C(C)C)cc1           TGI             =             44.6
15  COc1cccc(NC(=O)c2ccc(C(F)(F)F)nc2Nc2ccc(Cl)cc2C)c1           TGI             =             22.1
16  CC(=O)O[C@H]1CC[C@]2(C)[C@H]3C(=O)C=C4[C@@H]5C[C@](C)(C(=O)N6CCCNCC6)CC[C@]5(C)CC[C@@]4(C)[C@]3(C)CC[C@H]2C1(C)C           TGI             =             3.17
17           Cn1cc(C=C(C#N)C#N)c(=O)n(C)c1=O           TGI             >              100
18               Cc1nnc2sc(-c3ccc(N)cc3)nn12           TGI             >              100
19  C/C=C1/CN2CC[C@@H]3c4ccccc4N4[C@H](C(=O)OC)[C@H]1C[C@H]2[C@]34/C=C/C1=COC[C@@H]2[C@H]1C[C@H]1c3c(c4ccccc4n3C)C[C@@H]2N1C           TGI             =             5.92

Hey, just so you know, these numbers are from PubChem BioAssay (NCI).
